Measurement Type: melting point

Here's what some known entries look like.
Reported melting point of "COP(=O)(Cc1ccc(NC(=O)/C=C/c2cnn(C)c2-c2ccc(F)cc2)cc1)OC" : 209 to 210 °C

// recorded melting point for "Cc1cn(Cc2ccc(NC(=O)/C=C/c3cnn(C)c3-c3ccc(F)cc3)cc2)cn1" : 202 to 203 °C

Summary for this molecule, "Cn1ncc(/C=C/C(=O)Nc2cccc(CO)c2)c1-c1ccc(F)cc1" : melting point is 130 to 132 °C

List melting point for every entry below, keeping the order given.
1. Cn1ncc(/C=C/C(=O)Nc2ccc(CCc3cscn3)cc2)c1-c1ccc(F)cc1
2. COP(=O)(Cc1ccc(NC(=O)/C=C/c2cnn(C)c2-c2ccco2)cc1)OC
3. CCOP(=O)(Cc1ccc(NC(=O)/C=C/c2cnn(C)c2-c2ccoc2)cc1)OCC

1: 211 to 212 °C; 2: 201 to 202 °C; 3: 208 to 210 °C

"Cn1ncc(/C=C/C(=O)Nc2ccc(OCc3cscn3)cc2)c1-c1ccc(F)cc1" yielded melting point of 171 to 172 °C

Reference for the values: patent US7423159B2
